# targetSystem: UniProtKB Q12866
# Sequence (Q12866 whole entry, the tested form may be a part): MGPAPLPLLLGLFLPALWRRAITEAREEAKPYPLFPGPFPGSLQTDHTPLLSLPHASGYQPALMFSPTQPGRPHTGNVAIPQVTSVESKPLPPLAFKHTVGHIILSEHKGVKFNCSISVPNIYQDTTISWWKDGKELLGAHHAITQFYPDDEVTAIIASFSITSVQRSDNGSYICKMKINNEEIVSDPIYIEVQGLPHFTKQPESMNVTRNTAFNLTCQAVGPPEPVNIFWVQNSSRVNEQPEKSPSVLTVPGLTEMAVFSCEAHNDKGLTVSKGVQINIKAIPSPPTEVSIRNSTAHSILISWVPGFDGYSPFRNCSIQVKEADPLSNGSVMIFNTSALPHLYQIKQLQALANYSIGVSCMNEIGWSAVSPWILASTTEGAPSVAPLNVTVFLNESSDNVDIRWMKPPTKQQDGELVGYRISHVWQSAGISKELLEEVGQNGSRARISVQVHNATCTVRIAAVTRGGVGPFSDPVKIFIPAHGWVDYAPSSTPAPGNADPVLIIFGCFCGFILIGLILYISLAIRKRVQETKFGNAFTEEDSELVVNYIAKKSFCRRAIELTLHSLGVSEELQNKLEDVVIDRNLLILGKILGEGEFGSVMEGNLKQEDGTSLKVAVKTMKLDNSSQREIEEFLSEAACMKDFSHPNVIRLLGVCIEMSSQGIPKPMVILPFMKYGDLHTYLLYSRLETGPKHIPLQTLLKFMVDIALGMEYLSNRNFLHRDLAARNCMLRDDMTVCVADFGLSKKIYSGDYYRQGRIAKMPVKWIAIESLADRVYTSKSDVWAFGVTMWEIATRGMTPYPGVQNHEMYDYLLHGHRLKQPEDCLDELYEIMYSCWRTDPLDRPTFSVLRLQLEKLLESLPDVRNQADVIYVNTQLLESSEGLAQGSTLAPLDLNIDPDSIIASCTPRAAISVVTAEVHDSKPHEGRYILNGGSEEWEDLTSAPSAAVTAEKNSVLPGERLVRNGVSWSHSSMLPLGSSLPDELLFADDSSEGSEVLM
# testDetails: Inhibition of 6His/thrombin cleavage site-fused Avi-tagged dephosphorylated MER (unknown origin) (R528 to M999 residues) using Axltide (CKKSRGDYMTMQJG-acid) peptide as substrate preincubated for 30 mins followed by substrate and ATP addition at Km concentration measured after 120 mins by RapidFire LC-MS analysis
Field: IC50. Provide a value for each of the molecules that follow.
Give bare numbers, in nM.

Some entries whose results are on file:
                                  structure      targetsystem  measuredparameter  quantityunit  readoutnumber
0  CN(Cc1ccc2nccn2c1)c1nnc(-c2ccc(-c3ccccc3Cl)nc2)o1  UniProtKB Q12866               IC50            nM            126
1  COc1cc2ncnc(Nc3cnc(OCCC4CC4)nc3)c2cc1OCC1CCNCC1  UniProtKB Q12866               IC50            nM            251
2  CS(=O)(=O)c1cnc(Nc2ccc(O)cc2)nc1NCc1ccccc1  UniProtKB Q12866               IC50            nM            398

Next up:
Query block: Please look at this molecule and report its IC50: "CCn1c(-c2nnc(N(C)Cc3ccc4nccn4c3)o2)nc2ccccc21"
Result block: 631
